B1: P2RY14 (parent)
chain: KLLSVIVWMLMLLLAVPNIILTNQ

- Variants of: B1
- Test Description: protein stability index of a GFP-peptide fusion (GPS, HEK-293T) (PSI 1-6); higher = more stable;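 also: lentivirally expressed fusions sorted by FACS into six bins by GFP to DsRed ratio, PSI derived from sequencing read proportions per bin multiplied by bin number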
- Applied Conditions: c terminus: a fixed tail appended
Quantity Kind: protein stability index
Please state the value as a number alone, without comment.

Ask: Could you tell me which protein stability index is on file for KLLSVIVWMQMLLLAVPNIILTNQ [L10Q] ?
Result: 3.16

Ask: Given the entry KLLSVIVWMLMLILAVPNIILTNQ [L13I] , report its measured protein stability index.
Result: 1.81

Ask: Param item = KLLSVIVWMLMGLLAVPNIILTNQ [L12G] ; retrieve measured protein stability index.
Result: 3.74

Ask: Form field: reported protein stability index of KLLSVWVWMLMLLLAVPNIILTNQ [I6W]
Result: 2.02

Ask: Field request: protein stability index | item: KLLSVIVCMLMLLLAVPNIILTNQ [W8C]
Result: 1.95

Ask: Give its protein stability index value. Item: KLLSVIVWMLMLLLAVPLIILTNQ [N18L]
Result: 1.65

Ask: Report protein stability index for KLLSVIVWMLMLLLAVPNAILTNQ [I19A] please.
Result: 3.24

Ask: Which protein stability index value is on record for KLLSVIVWMLMLLLAVYNIILTNQ [P17Y] ?
Result: 1.54

Ask: Recorded protein stability index of KLLSVIVWMLMLLLAVPNIILTKQ [N23K] , please.
Result: 2.45

Ask: Would you mind telling me what protein stability index value was observed for KLLSVIVWMLMLLLAMPNIILTNQ [V16M] ?
Result: 3.43

Ask: # query: protein stability index of entry KLLSVIVWMLMLLLDVPNIILTNQ [A15D]
Result: 3.06

Ask: Given the entry KLLSVIVWMLMLTLAVPNIILTNQ [L13T] , report its measured protein stability index.
Result: 2.38

Ask: Report protein stability index for KLLSVIVWMLMLLLAVPNIILWNQ [T22W] please.
Result: 2.92

Ask: // query protein stability index value for entry KLLSVIVWMLMLLLAVPNIKLTNQ [I20K]
Result: 3.1

Ask: So what's the measured protein stability index for this one? KLLPVIVWMLMLLLAVPNIILTNQ [S4P]
Result: 3.34

Ask: Returns the measured protein stability index for the input variant. Input: KNLSVIVWMLMLLLAVPNIILTNQ [L2N]
Result: 1.89

Ask: GET /values?readout=protein stability index&item= KLLSVIVWDLMLLLAVPNIILTNQ [M9D]
Result: 4.27

Ask: Please give the measured protein stability index for this variant: KLLSVIVWMLMLLLAVPNIPLTNQ [I20P]
Result: 4.08

Ask: Give the measured protein stability index of ILLSVIVWMLMLLLAVPNIILTNQ [K1I] .
Result: 2.53

Ask: Look at this variant and give its reported protein stability index. KLLSVIVWMLMLLLAAPNIILTNQ [V16A]
Result: 2.77

Ask: Which measured protein stability index value corresponds to KDLSVIVWMLMLLLAVPNIILTNQ [L2D] ?
Result: 2.67

Ask: Would you kindly share the measured protein stability index for KLLSVIVWMLMDLLAVPNIILTNQ [L12D] ?
Result: 2.65

Ask: What protein stability index value was documented for this variant, KLLSVIVWMLNLLLAVPNIILTNQ [M11N] ?
Result: 2.42

Ask: Look up protein stability index for this variant: KLLSVIVWMLMLLLAVDNIILTNQ [P17D]
Result: 2.68

Ask: Please report the recorded protein stability index for KLLSVIVWMLMLLLEVPNIILTNQ [A15E] .
Result: 2.84

Ask: Dear colleague, I am looking for the recorded protein stability index of the following variant: KLLSVIVWMLILLLAVPNIILTNQ [M11I]
Result: 3.17

Ask: What value of protein stability index has been reported for the following variant? KLLSVIVWMLMLLLAVPVIILTNQ [N18V]
Result: 1.58

Ask: Request the reported protein stability index associated with KLLSVIVWMLMLLWAVPNIILTNQ [L14W]
Result: 2.51

Ask: Look up protein stability index for this variant: KLLSYIVWMLMLLLAVPNIILTNQ [V5Y]
Result: 2.63

Ask: Reported protein stability index for KLLSVIVWMLMLLLAVPIIILTNQ [N18I] : what is it?
Result: 2.63

Ask: Which measured protein stability index value corresponds to KLLSVNVWMLMLLLAVPNIILTNQ [I6N] ?
Result: 3.01

Ask: What does the data say about its protein stability index? Entry: KLLHVIVWMLMLLLAVPNIILTNQ [S4H]
Result: 3.18

Ask: Reported protein stability index for KLLSVIVWMLMLLLAQPNIILTNQ [V16Q] : what is it?
Result: 3.43

Ask: Quick check: protein stability index of KLLSVIVWMLMLLLAVPNIILTFQ [N23F] ?
Result: 2.98

Ask: Could you share which protein stability index value was measured for KLLSVIVWMLMLLLAVHNIILTNQ [P17H] ?
Result: 2.96

Ask: Query (variant): KLWSVIVWMLMLLLAVPNIILTNQ [L3W] ; field requested: protein stability index
Result: 3.69

Ask: Which measured protein stability index value corresponds to KLLSVIVWWLMLLLAVPNIILTNQ [M9W] ?
Result: 2.15

Ask: Could you share which protein stability index value was measured for KLLSVIVWMLMLLLAVPNIILTNP [Q24P] ?
Result: 2.59

Ask: Entry KLLSVIVWMIMLLLAVPNIILTNQ [L10I] has what protein stability index?
Result: 3.19

Ask: Quick one: protein stability index for KFLSVIVWMLMLLLAVPNIILTNQ [L2F] ?
Result: 2.29

Ask: I have this variant here, KLLSVIVWMLMLLLAVPNIIPTNQ [L21P] , and I need its recorded protein stability index.
Result: 1.98

Ask: May I ask what protein stability index has been recorded for KLLSVIVPMLMLLLAVPNIILTNQ [W8P] ?
Result: 1.85

Ask: Requested field: protein stability index. Item: KLLSVIVWMLMLFLAVPNIILTNQ [L13F]
Result: 3.72

Ask: What measured protein stability index goes with KLLSVIVWMLMLLLAVPNIILTDQ [N23D] ?
Result: 3.86

Ask: I am curious: what protein stability index value has been reported for KLLSVIVWMLMLLGAVPNIILTNQ [L14G] ?
Result: 2.27

Ask: So what does the record say about protein stability index for KLLSQIVWMLMLLLAVPNIILTNQ [V5Q] ?
Result: 2.35

Reference source: the supplement of paper PMC10567573
